Source listed as PubChem BioAssay (NCI).

assay: NCI Yeast Anticancer Drug Screen. Data for the mec2-1 strain (AID 157); details: S. cerevisiae mec2-1 strain; at 50.0 µM unless noted
About 79,000 compounds went through this panel and 15% of them were active in at least one assay; those are over-represented in the sample as a whole. Calls of active or inactive are those of the source. Rule as the data show it: active = growth inhibition above about 70%; inactive = the rest.
Give your call using only these classes: active, inactive

Data request: Dear all, I need the recorded test outcome for NC(=O)C(NCc1ccccc1)c1ccccc1 (stereo not given) , thank you.
Data returned: inactive

Data request: Dear all, I need the recorded test outcome for `CC(=O)[C@@]1(O)CC[C@H]2[C@@H]3CC=C4C[C@@H](Cl)CC[C@]4(C)[C@H]3CC[C@@]21C` , thank you.
Data returned: inactive

Data request: Dear all, I need the recorded test outcome for CS(=O)CCC1C(=O)OC(C(C)(C)C)N1C(=O)c1ccccc1 (stereo not given) , thank you.
Data returned: inactive

Data request: Dear all, I need the recorded test outcome for `CCOC(=O)c1cc(/C=C/C(C)=C/C(=O)OC)n(C)c1C` , thank you.
Data returned: inactive

Data request: Dear all, I need the recorded test outcome for `CCOCNC(=O)NCC(F)(F)C(F)(F)C(F)(F)C(F)(F)C(F)(F)C(F)(F)C(F)(F)F` , thank you.
Data returned: inactive

Data request: Dear all, I need the recorded test outcome for `CCCC(c1ccc(N(C)C)cc1)c1ccc(N(C)C)cc1` , thank you.
Data returned: inactive

Data request: Dear all, I need the recorded test outcome for `CC(=O)O[C@H]1[C@@H](OC(C)=O)C(C)(C)/C=C/[C@H](C)C(=O)[C@@]2(OC(C)=O)C[C@@](C)(OC(C)=O)[C@H](OC(C)=O)[C@@H]2[C@H]2OC(=O)CC[C@@]2(OC(=O)c2ccccc2)[C@@H]1OCC(C)C` , thank you.
Data returned: inactive

Data request: Dear all, I need the recorded test outcome for `CN(C)c1ccc(/[N+]([O-])=N/N2C(=O)c3ccccc3C2=O)cc1` , thank you.
Data returned: inactive

Data request: Dear all, I need the recorded test outcome for `N#CC(C(=S)Nc1ccccc1)=C1Nc2ccccc2N1` , thank you.
Data returned: inactive

Data request: Dear all, I need the recorded test outcome for CCC(C)(O)c1cn(-c2ccc(Cl)cc2)nn1 (stereo not given) , thank you.
Data returned: inactive

Data request: Dear all, I need the recorded test outcome for `Cc1ccc(C)c(NC(=O)c2cccc(C(=O)Nc3cc(C)ccc3C)c2)c1` , thank you.
Data returned: inactive

Data request: Dear all, I need the recorded test outcome for `N.N.O=P([O-])([O-])C1(P(=O)([O-])[O-])CCCCCN1.[Pt+2]` , thank you.
Data returned: inactive

====

Form field: growth inhibition (one value per entry).
assay: NCI Yeast Anticancer Drug Screen. Data for the bub3 strain (AID 167); settings: S. cerevisiae bub3 mutant strain, active compounds read high; at 50.0 µM unless noted
Compounds without any hit were thinned out: in the full panel of roughly 79,000, 15% have a hit.
Hi! Could you send only the number? It should be in %, unit omitted.

{"molecule": "O=[N+]([O-])c1cccnc1S(=O)(=O)c1ccccc1", "reportedValue": 6.2}

Data request: Look up growth inhibition for this molecule: `Nc1nc(CCCCc2ccc(NC(=O)CBr)cc2)c(CCCCc2ccccc2)c(=O)[nH]1`
Data returned: -3.1

Data request: Look up growth inhibition for this molecule: CC1CC(=O)c2c(ccc3c2C(=O)c2cccc(O)c2C3=O)C1 (stereo unspecified)
Data returned: -1.05

Data request: Look up growth inhibition for this molecule: `Cc1ccc(Cl)c(NC(=O)Nc2ccccc2Cl)c1`
Data returned: -2.5

Data request: Look up growth inhibition for this molecule: `Cc1ccc([N+](=O)[O-])cc1N`
Data returned: 17.1

Data request: Look up growth inhibition for this molecule: `NC(=S)Nc1ccc(Br)cc1`
Data returned: -4.05

====

test: NCI Yeast Anticancer Drug Screen. Data for the mlh1 rad18 strain (AID 175); conditions: S. cerevisiae mlh1 rad18 strain growth inhibition, active compounds read high; at 50.0 µM unless noted
This is part of a sample that, as a whole, favours compounds with a hit. Of some 79,000 tested, about 15% had one in any assay.
Form field: growth inhibition (one value per entry).
Hi! Could you send only the number? It should be in %, unit omitted.

Below, 3 compounds whose answers are already recorded.
{"compound": "CCCCOC(=O)/C=C/C(=O)OCCCC", "parameter": "growth inhibition", "reportedValue": 43.9}
{"compound": "CCOC(=O)C(NC(C)=O)(Nc1ccc(S(N)(=O)=O)cc1)C(F)(F)F (centres undefined)", "parameter": "growth inhibition", "reportedValue": -28.9}
{"compound": "C/C(=N/NC(N)=S)c1c(C)[nH]c2ccccc12", "parameter": "growth inhibition", "reportedValue": 0.95}

Data request: Look up growth inhibition for this compound: `O=[N+]([O-])c1cc(N(c2ccccc2)c2ccccc2)c(Cl)cc1Cl`
Data returned: -3

Data request: Look up growth inhibition for this compound: `O=C1/C(=C/c2cccc([N+](=O)[O-])c2)Cc2ccccc21`
Data returned: 5.05

Data request: Look up growth inhibition for this compound: `CCOP(=O)(C/C(=N/NC(C)(C)C)C(=O)Nc1nc2ccc(C)cc2s1)OCC`
Data returned: -18.6

Data request: Look up growth inhibition for this compound: Nc1ncnc2c1ncn2CC(O)CN(CCO)CCO (centres undefined)
Data returned: 18.6

====

assay: NCI Yeast Anticancer Drug Screen. Data for the mec2-1 strain (AID 157); details: S. cerevisiae mec2-1 strain, active compounds read high; at 50.0 µM unless noted
Compounds without any hit were thinned out: in the full panel of roughly 79,000, 15% have a hit.
Form field: growth inhibition (one value per entry).
Hi! Could you send only the number? It should be in %, unit omitted.

Below, 5 molecules whose answers are already recorded.
{"molecule": "COC(=O)CSSC(C)C", "reportedValue": -15.3}
{"molecule": "CN(C)c1cccc2ccccc12", "reportedValue": 9.1}
{"molecule": "O=S1(=O)C(=C(c2ccccc2)c2ccccc2)S(=O)(=O)c2ccccc21", "reportedValue": 13.3}
{"molecule": "COc1ccc(OC)c(/C=N\\NC(=O)N/N=C/c2cc(OC)ccc2OC)c1", "reportedValue": -20.6}
{"molecule": "COCc1ccccc1-n1nccc1S(C)=O (centres undefined)", "reportedValue": 25.4}

Data request: Look up growth inhibition for this molecule: `COc1cccc(-c2cc(=O)c3cc(C)cnc3[nH]2)c1`
Data returned: 3.85

Data request: Look up growth inhibition for this molecule: `Oc1ccc2ccccc2c1/C=C/c1ccc2c(Br)cc(Br)c(O)c2n1`
Data returned: 41.1

Data request: Look up growth inhibition for this molecule: CN(Cc1ccc2nc(N)nc(N)c2c1)c1ccc(C(=O)NC(CCC(=O)O)C(=O)O)cc1 (centres undefined)
Data returned: 88.8

Data request: Look up growth inhibition for this molecule: OC12c3ccccc3C1CCCCCCCCCC21OCCCO1 (centres undefined)
Data returned: -19.8

Data request: Look up growth inhibition for this molecule: `Cc1ccccc1C(=O)C[n+]1ccccc1C`
Data returned: 15.5

Data request: Look up growth inhibition for this molecule: COC1OC(CO)C(O)C(Nc2ccc([N+](=O)[O-])cc2[N+](=O)[O-])C1O (centres undefined)
Data returned: 1.05

Data request: Look up growth inhibition for this molecule: CCOC(=O)C12CCCC1(O)N(NC(N)=O)C(C)=C2C(=O)OC (centres undefined)
Data returned: -5.1

====

assay: NCI Yeast Anticancer Drug Screen. Data for the rad50 strain (AID 155);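 also: 0% = growth of vehicle-only cultures of the same strain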; conditions: S. cerevisiae rad50 strain growth inhibition; at 50.0 µM (retest, dose inferred, filed as 5.0); active compounds read high
Compounds without any hit were thinned out: in the full panel of roughly 79,000, 15% have a hit. The source made the active and inactive calls. Cut-off read from the data, not from the text of the source: active = growth inhibition above about 70%; inactive = the rest.
Form field: growth inhibition (one value per entry).

Below, 4 compounds whose answers are already recorded.
{"compound": "O=C(O)/C=C\\C(=O)Nc1cccc2ccccc12", "parameter": "growth inhibition", "reportedValue": "60% (inactive)"}
{"compound": "CCCCOC(=O)/C=C\\C(=O)NC(N)=O", "parameter": "growth inhibition", "reportedValue": "9% (inactive)"}
{"compound": "N#CC(C#N)N=Nc1ccc(Cl)cc1", "parameter": "growth inhibition", "reportedValue": "83% (active)"}
{"compound": "Oc1ccc(Cc2ccccc2Cl)c(O)c1", "parameter": "growth inhibition", "reportedValue": "99% (active)"}

Data request: Look up growth inhibition for this compound: NN1CCOC(c2ccccc2)C1 (stereo not given)
Data returned: 57% (inactive)

====

Form field: growth inhibition (one value per entry).
test: NCI Yeast Anticancer Drug Screen. Data for the bub3 strain (AID 167); settings: S. cerevisiae bub3 mutant strain, active compounds read high; at 50.0 µM unless noted
Compounds without any hit were thinned out: in the full panel of roughly 79,000, 15% have a hit.
Hi! Could you send only the number? It should be in %, unit omitted.

Below, 3 compounds whose answers are already recorded.
{"compound": "CCOC(=O)C1C(=O)CC(C)(O)C(C(=O)OCC)C1c1ccc(OC)cc1 (stereo not drawn)", "growth inhibition (%)": -2}
{"compound": "CCCCOC(c1ccccc1)c1ccccc1", "growth inhibition (%)": -4.25}
{"compound": "Oc1ccc(C(Cc2ccccc2)NCc2ccccc2)cc1 (stereo not drawn)", "growth inhibition (%)": 5.25}

Data request: Look up growth inhibition for this compound: `C=C[C@]1(C)C=C2CC[C@@H]3[C@](C)(CCC[C@@]3(C)C(=O)O)[C@H]2CC1`
Data returned: -1.9

Data request: Look up growth inhibition for this compound: `CSC(N)=Nc1cccc2ccccc12`
Data returned: -34.2

Data request: Look up growth inhibition for this compound: `CC(=O)Nc1cccc(Br)c1`
Data returned: -25.5

Data request: Look up growth inhibition for this compound: `O=C(Nc1ccccc1)c1cc(S(=O)(=O)Nc2n[nH]c(=O)[nH]2)c(SSc2cc(Cl)c(C(=O)Nc3ccccc3)cc2S(=O)(=O)Nc2n[nH]c(=O)[nH]2)cc1Cl`
Data returned: -2.25

Data request: Look up growth inhibition for this compound: `C/C(CC1=CCCCC1)=N\NC(N)=O`
Data returned: -4.65

Data request: Look up growth inhibition for this compound: `CC1(CO)COC(C)(C)OC1`
Data returned: 2.75

Data request: Look up growth inhibition for this compound: `O=C(O)c1ccc(C(=O)NCCCN(CCCCN(CCCNC(=O)c2ccc(C(=O)O)c(O)c2O)C(=O)c2ccc(C(=O)O)c(O)c2O)C(=O)c2ccc(C(=O)O)c(O)c2O)c(O)c1O`
Data returned: 0.35

Data request: Look up growth inhibition for this compound: `Nc1nc(N)c(CCCCc2ccccc2)c(Cc2ccccc2)n1`
Data returned: 3.7

Data request: Look up growth inhibition for this compound: O=C1N=CN=C2C=CC(Cl)=C(I)C12 (stereo not drawn)
Data returned: 29.9
